B1: HDV Ribozyme (parent)
chain: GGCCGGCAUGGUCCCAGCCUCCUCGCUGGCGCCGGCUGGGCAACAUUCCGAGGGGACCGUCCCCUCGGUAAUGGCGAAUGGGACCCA

Variants of: B1
experiment-notes: self-cleavage, relative activity (ratio to wild type); higher = more cleavage; co-transcriptional
metric-name: self-cleavage
Answer as a number with no unit attached.

Observe how each entry below is paired with its result.
variant-string	self-cleavage
G39C C63G	0.0437
C33A U37G	0.119
C41A U47G	1.08

The recorded self-cleavage for U9C A42U is 0.767

The recorded self-cleavage for C48G U72A is 0.718

The recorded self-cleavage for C41G G50A is 0.911

The recorded self-cleavage for U27A U47A is 0.7

The recorded self-cleavage for C13U A83U is 0.185

The recorded self-cleavage for `G34C` is 0.195

The recorded self-cleavage for C30A C64U is 0.554
